Target under test: T1, GFP-9S library array, motif 4 ND N98D;D124R (synthetic construct, N98D;D124R)
T1 chain: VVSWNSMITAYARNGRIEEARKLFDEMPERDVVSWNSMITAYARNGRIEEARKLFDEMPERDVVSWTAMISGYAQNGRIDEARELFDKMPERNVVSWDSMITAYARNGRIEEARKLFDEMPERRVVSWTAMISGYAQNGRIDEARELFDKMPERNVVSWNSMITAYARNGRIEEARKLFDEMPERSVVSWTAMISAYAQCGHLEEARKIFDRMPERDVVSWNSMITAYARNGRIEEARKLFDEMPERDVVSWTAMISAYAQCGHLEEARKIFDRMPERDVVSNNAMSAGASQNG
Assay: high-throughput RNA pulldown from lysate on Ni-NTA beads; HRP: 50 mM Tris pH 8, 150 mM NaCl, 1 mM beta-mercaptoethanol, 50 ug/ml BSA, 3 ug/ml yeast RNA, 0.5% heparin; ITC and FP: Tris pH 8, 200 mM KCl, 5% glycerol; MST: 50 mM Tris pH 8, 200 mM NaCl, 1 mM DTT, BSA, heparin, 0.05% Tween 20
Protocol conditions: tags: N-terminal His-eGFP; label: 5' Cy5
Recorded metric: Kd

>  <Binder>
AUUAGACGUGA (ssRNA) [Cy5-rpoA-G]

>  <Reading>
155 nM

$$$$
>  <Binder>
AUUACACGUGA (ssRNA) [Cy5-rpoA]

>  <Reading>
154 nM

$$$$
